Tested system: NAD-dependent protein deacetylase sirtuin-2 (Homo sapiens, UniProt Q8IXJ6)
Sequence (Q8IXJ6 whole entry): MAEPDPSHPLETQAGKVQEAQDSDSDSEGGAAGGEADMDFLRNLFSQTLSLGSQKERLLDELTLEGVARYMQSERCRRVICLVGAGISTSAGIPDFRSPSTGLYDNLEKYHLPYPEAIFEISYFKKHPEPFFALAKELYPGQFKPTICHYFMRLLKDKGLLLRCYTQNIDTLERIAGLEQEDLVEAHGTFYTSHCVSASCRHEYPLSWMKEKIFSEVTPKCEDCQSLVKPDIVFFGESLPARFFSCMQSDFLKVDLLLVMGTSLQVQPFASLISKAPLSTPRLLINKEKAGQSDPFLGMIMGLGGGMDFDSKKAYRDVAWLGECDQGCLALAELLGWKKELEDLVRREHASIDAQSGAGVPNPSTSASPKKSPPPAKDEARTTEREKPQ
Assay summary: Inhibition of human recombinant SIRT2 using AMC-p53 (317 to 320 residues) as substrate incubated for 45 mins followed by NAD+ addition measured after 30 mins by fluorescence assay
Assay endpoint: log10 IC50 (log10 of the value in µM)

| Compound smiles | log10 IC50 |
| --- | --- |
| CCOC(=O)c1ccc(N2CCN(CCn3c(-c4ccc(-c5ccc(N6CCCCC6)cc5)cc4)nc4cc(C(=O)OCC)ccc43)CC2)c(N)c1 | 1.13 |
| CCOC(=O)c1ccc(N2CCN(CCn3c(-c4ccc(-c5ccc(O)cc5O)cc4)nc4cc(C(=O)OCC)ccc43)CC2)c(N)c1 | 0.90 |
| CCCCCCCCn1c(-c2ccc(-c3ccc4c(c3)OCO4)cc2)nc2cc(C(=O)OCC)ccc21 | 1.62 |
| CCCCCCCCn1c(-c2ccc(-c3ccc(O)c(OC)c3)cc2)nc2cc(C(=O)OCC)ccc21 | 1.67 |
| CCOC(=O)c1ccc(N2CCN(CCn3c(-c4ccc(-c5ccc(O)c(OC)c5)cc4)nc4cc(C(=O)OCC)ccc43)CC2)c(N)c1 | 0.94 |
| CCOC(=O)c1ccc(N2CCN(CCn3c(-c4ccc(-c5ccc(N(C)C)cc5)cc4)nc4cc(C(=O)OCC)ccc43)CC2)c(N)c1 | 0.47 |
| CCCCCCCCn1c(-c2ccc(-c3ccc(N(C)C)cc3)cc2)nc2cc(C(=O)OCC)ccc21 | 1.58 |
| CCCCCCCCn1c(-c2ccc(-c3ccc(N4CCCCC4)cc3)cc2)nc2cc(C(=O)OCC)ccc21 | 1.57 |
| CCOC(=O)c1ccc(N2CCN(CCn3c(-c4ccc(-c5ccc6c(c5)OCO6)cc4)nc4cc(C(=O)OCC)ccc43)CC2)c(N)c1 | 1.21 |

###

Tested system: NAD-dependent protein deacetylase sirtuin-2 (Homo sapiens)
Assay summary: Inhibition of human recombinant SIRT2 at 50 uM using AMC-p53 ([…] residues) as substrate incubated for 45 mins followed by NAD+ addition measured after 30 mins by fluorescence assay relative to control
Each entry below carries its reported inhibition.

| Compound smiles | Reading unit | inhibition |
| --- | --- | --- |
| CCOC(=O)c1ccc(N2CCN(CCn3c(-c4ccc(-c5cncc(-c6ccc(F)cc6)c5)cc4)nc4cc(C(=O)OCC)ccc43)CC2)c(N)c1 | % | 20.9 |
| CCCCCCCCn1c(-c2ccc(-c3ccc(O)cc3O)cc2)nc2cc(C(=O)OCC)ccc21 | % | 45.9 |
| CCOC(=O)c1ccc(N2CCN(CCn3c(-c4ccc(-c5ccc(C)cc5)cc4)nc4cc(C(=O)OCC)ccc43)CC2)c(N)c1 | % | 43 |

###

Tested system: NAD-dependent protein deacetylase sirtuin-2 (Homo sapiens) (UniProt Q8IXJ6)
Assay summary: Inhibition of human recombinant SIRT2 at 50 uM using AMC-p53 ([…] residues) as substrate incubated for 45 mins followed by NAD+ addition measured after 30 mins by fluorescence assay relative to control
Each entry below carries its reported inhibition.

| Compound smiles | Reading unit | inhibition |
| --- | --- | --- |
| CCCCCCCCn1c(-c2ccc(-c3ccccc3)cc2)nc2cc(C(=O)OCC)ccc21 | % | 30 |
| CCOC(=O)c1ccc(N2CCN(CCn3c(-c4ccc(-c5ccc(OC(F)(F)F)cc5)cc4)nc4cc(C(=O)OCC)ccc43)CC2)c(N)c1 | % | 37.2 |
| CCCCCCCCn1c(-c2ccc(-c3cccc(-c4ccc(F)cn4)c3)cc2)nc2cc(C(=O)OCC)ccc21 | % | 14 |
| CCCCCCCCn1c(-c2ccc(-c3ccc(C)cc3)cc2)nc2cc(C(=O)OCC)ccc21 | % | 30.3 |
| CCCCCCCCn1c(-c2ccc(-c3ccc(OC(F)(F)F)cc3)cc2)nc2cc(C(=O)OCC)ccc21 | % | 35.6 |
| CCOC(=O)c1ccc(N2CCN(CCn3c(-c4ccc(-c5ccccc5)cc4)nc4cc(C(=O)OCC)ccc43)CC2)c(N)c1 | % | 26.8 |
| CCOC(=O)c1ccc(N2CCN(CCn3c(-c4ccc(-c5ccc(Cl)cc5)cc4)nc4cc(C(=O)OCC)ccc43)CC2)c(N)c1 | % | 43.3 |
| CCCCCCCCn1c(-c2ccc(-c3ccc(Cl)cc3)cc2)nc2cc(C(=O)OCC)ccc21 | % | 38.3 |

###

Tested system: NAD-dependent protein deacetylase sirtuin-1 (Homo sapiens)
Sequence (Q96EB6 whole entry, the tested form may be a part): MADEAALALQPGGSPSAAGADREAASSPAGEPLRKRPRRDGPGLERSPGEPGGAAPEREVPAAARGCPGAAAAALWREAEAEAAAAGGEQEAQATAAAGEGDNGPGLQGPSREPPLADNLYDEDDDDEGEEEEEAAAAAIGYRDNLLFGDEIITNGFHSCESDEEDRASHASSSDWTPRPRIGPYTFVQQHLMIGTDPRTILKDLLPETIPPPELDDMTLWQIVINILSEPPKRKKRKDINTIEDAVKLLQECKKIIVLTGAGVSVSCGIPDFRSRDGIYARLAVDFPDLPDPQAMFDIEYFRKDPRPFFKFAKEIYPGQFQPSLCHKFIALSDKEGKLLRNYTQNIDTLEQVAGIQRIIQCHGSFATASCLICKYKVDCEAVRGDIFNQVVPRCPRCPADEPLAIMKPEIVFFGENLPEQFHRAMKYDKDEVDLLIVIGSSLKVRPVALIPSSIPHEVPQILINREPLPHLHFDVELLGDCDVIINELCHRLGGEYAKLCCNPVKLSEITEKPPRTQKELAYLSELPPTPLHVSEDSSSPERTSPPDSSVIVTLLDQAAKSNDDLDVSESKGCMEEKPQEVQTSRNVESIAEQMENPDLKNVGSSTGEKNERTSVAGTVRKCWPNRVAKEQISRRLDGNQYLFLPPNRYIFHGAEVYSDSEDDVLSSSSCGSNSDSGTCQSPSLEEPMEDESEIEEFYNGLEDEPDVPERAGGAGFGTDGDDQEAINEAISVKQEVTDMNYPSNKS
Assay summary: Inhibition of human recombinant SIRT1 using AMC-p53 (379 to 382 residues) as substrate incubated for 45 mins followed by NAD+ addition measured after 30 mins by fluorescence assay

| Compound smiles | Reading unit | Limit operator | IC50 |
| --- | --- | --- | --- |
| CCCCCCCCn1c(-c2ccc(-c3ccc(N(C)C)cc3)cc2)nc2cc(C(=O)OCC)ccc21 | µM | > | 50 |
| CCOC(=O)c1ccc(N2CCN(CCn3c(-c4ccc(-c5ccc(O)cc5O)cc4)nc4cc(C(=O)OCC)ccc43)CC2)c(N)c1 | µM | = | 20 |
| CCCCCCCCn1c(-c2ccc(-c3ccc4c(c3)OCO4)cc2)nc2cc(C(=O)OCC)ccc21 | µM | > | 50 |
| CCOC(=O)c1ccc(N2CCN(CCn3c(-c4ccc(-c5ccc(N(C)C)cc5)cc4)nc4cc(C(=O)OCC)ccc43)CC2)c(N)c1 | µM | = | 10.2 |
| CCOC(=O)c1ccc(N2CCN(CCn3c(-c4ccc(-c5ccc6c(c5)OCO6)cc4)nc4cc(C(=O)OCC)ccc43)CC2)c(N)c1 | µM | = | 29.8 |
| CCCCCCCCn1c(-c2ccc(-c3ccc(N4CCCCC4)cc3)cc2)nc2cc(C(=O)OCC)ccc21 | µM | > | 50 |
| CCCCCCCCn1c(-c2ccc(-c3ccc(O)c(OC)c3)cc2)nc2cc(C(=O)OCC)ccc21 | µM | > | 50 |
| CCOC(=O)c1ccc(N2CCN(CCn3c(-c4ccc(-c5ccc(N6CCCCC6)cc5)cc4)nc4cc(C(=O)OCC)ccc43)CC2)c(N)c1 | µM | = | 37 |
| CCOC(=O)c1ccc(N2CCN(CCn3c(-c4ccc(-c5ccc(O)c(OC)c5)cc4)nc4cc(C(=O)OCC)ccc43)CC2)c(N)c1 | µM | = | 35.1 |

###

Tested system: NAD-dependent protein deacetylase sirtuin-3, mitochondrial (Homo sapiens, UniProt Q9NTG7)
Sequence (Q9NTG7 whole entry, the tested form may be a part): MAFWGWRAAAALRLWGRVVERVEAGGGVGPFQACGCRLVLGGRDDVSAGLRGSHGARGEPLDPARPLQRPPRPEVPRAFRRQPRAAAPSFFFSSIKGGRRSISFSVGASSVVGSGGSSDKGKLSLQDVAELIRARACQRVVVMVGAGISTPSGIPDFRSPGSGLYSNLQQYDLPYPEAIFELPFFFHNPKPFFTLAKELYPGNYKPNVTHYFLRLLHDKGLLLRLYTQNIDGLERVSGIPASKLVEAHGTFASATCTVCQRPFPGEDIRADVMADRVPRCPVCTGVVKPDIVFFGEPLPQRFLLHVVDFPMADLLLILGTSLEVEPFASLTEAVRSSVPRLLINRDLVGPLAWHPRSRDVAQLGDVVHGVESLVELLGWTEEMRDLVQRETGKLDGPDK
Assay summary: Inhibition of human recombinant SIRT3 using AMC-p53 (317 to 320 residues) as substrate incubated for 45 mins followed by NAD+ addition measured after 30 mins by fluorescence assay
Each entry below carries its reported IC50.

| Compound smiles | IC50 |
| --- | --- |
| CN(C)CCCCC(=O)Nc1ccc(NC(=S)NC(=O)c2ccc(C(C)(C)C)cc2)cc1 | 82.6 µM |
| CCCCCCCCn1c(-c2ccc(-c3ccc(O)c(OC)c3)cc2)nc2cc(C(=O)OCC)ccc21 | > 50 µM |
| CCCCCCCCn1c(-c2ccc(-c3ccc(N4CCCCC4)cc3)cc2)nc2cc(C(=O)OCC)ccc21 | > 50 µM |
| CCOC(=O)c1ccc(N2CCN(CCn3c(-c4ccc(-c5ccc6c(c5)OCO6)cc4)nc4cc(C(=O)OCC)ccc43)CC2)c(N)c1 | 27 µM |
| CCCCCCCCn1c(-c2ccc(-c3ccc(N(C)C)cc3)cc2)nc2cc(C(=O)OCC)ccc21 | > 50 µM |
| CCCCCCCCn1c(-c2ccc(-c3ccc4c(c3)OCO4)cc2)nc2cc(C(=O)OCC)ccc21 | > 50 µM |

###

Each entry below carries its reported inhibition.
Tested system: NAD-dependent protein deacetylase sirtuin-1 (Homo sapiens)
Assay summary: Inhibition of human recombinant SIRT1 at 50 uM using AMC-p53 (379 to 382 residues) as substrate incubated for 45 mins followed by NAD+ addition measured after 30 mins by fluorescence assay relative to control

| Compound smiles | inhibition / % |
| --- | --- |
| CCCCCCCCn1c(-c2ccc(-c3ccc(C)cc3)cc2)nc2cc(C(=O)OCC)ccc21 | 15.3 |
| CCOC(=O)c1ccc(N2CCN(CCn3c(-c4ccc(-c5ccc(C)cc5)cc4)nc4cc(C(=O)OCC)ccc43)CC2)c(N)c1 | 28.4 |
| CCOC(=O)c1ccc(N2CCN(CCn3c(-c4ccc(-c5ccc(Cl)cc5)cc4)nc4cc(C(=O)OCC)ccc43)CC2)c(N)c1 | 28.2 |
| CCCCCCCCn1c(-c2ccc(-c3ccc(Cl)cc3)cc2)nc2cc(C(=O)OCC)ccc21 | 24.3 |
